experimentalEndpoint: melting point

For orientation, consider the following solved cases.
N#Cc1c(Nc2c(F)cccc2F)cccc1Oc1ccccc1
150 to 153 °C
O=C(C(=O)c1ccc(C#Cc2ccccc2)cc1)c1ccc(C#Cc2ccccc2)cc1
168 to 170 °C
COc1nc2cc([N+](=O)[O-])cc(Br)c2nc1OC
171 to 175 °C
Cc1cccc2c1ncn2Cc1oc2ccccc2c(=O)c1-c1ccccc1
204 to 208 °C
CC(C)NC(=S)n1ccc2ccc(Cl)cc21
92 to 93 °C
CN(C)C12CC3CC(CC(O)(C3)C1)C2
60 to 64 °C
C=C(C)C(=O)Oc1ccc(/C=C/C(=O)OC)cc1
76 to 80 °C
COc1cc(CCc2c(CO)ccc(OC)c2OC)cc(OC)c1
126 to 128 °C

// query Return value of melting point for input COC(=O)C1(c2cc(C#N)ccc2O)CCCC1 , no commentary.
// result 113 to 118 °C

// query Return value of melting point for input Cc1ccc(-c2c(F)c(F)c3c(=O)c(C(=O)O)cn(C4CC4)c3c2F)c(C)n1 , no commentary.
// result 264 to 266 °C

// query Return value of melting point for input COc1ccc(-c2[nH]nc3c2C(=O)c2c(NC(=O)CN4CCC(C(N)=O)CC4)cccc2-3)cc1 , no commentary.
// result > 300 °C

Values compiled from a melting point compilation (Tetko et al.; mined from patent text by program, amines drawn as free bases though some values may be those of a salt).
